Test system: 425362-245-T-J1 tumor spheroids, viability % test/control
method.description: Anticancer human tumor 425362-245-T-J1 patient-derived melanoma cell line growth inhibition; active means viability on the fitted dose curve at most 10% of control; inactive means the rest
settings: second compound 0.03 µM; first compound 0.1 µM; spheroids with HUVEC and MSC
Outcomes: class 1 (active), class 0 (inactive)

# compound, group
records = [
    ("CC(C)n1c(=O)n(C)c2cnc3cc(F)c(-c4ccc(OCCCN5CCCCC5)nc4)cc3c21 + CC[C@@]1(O)C(=O)OCc2c1cc1n(c2=O)Cc2cc3c(CN(C)C)c(O)ccc3nc2-1", "class 1"),
    ("COc1ccc([C@@H](O)c2cc(-c3ncnc4cc(N5CCOCC5)ccc34)c(F)cc2Cl)nn1 + CC[C@@]1(O)C(=O)OCc2c1cc1n(c2=O)Cc2cc3c(CN(C)C)c(O)ccc3nc2-1", "class 0"),
    ("Cc1cc(C)c(CNC(=O)c2cc(-c3ccc(CN4CCOCC4)cc3)cc3c2cnn3C2CCCC2)c(=O)[nH]1 + CC[C@@]1(O)C(=O)OCc2c1cc1n(c2=O)Cc2cc3c(CN(C)C)c(O)ccc3nc2-1", "class 0"),
    ("CC1COCCN1c1cc(-c2ccnn2C)c2ccnc(-c3ccn[nH]3)c2n1 (stereo unspecified) + CC[C@@]1(O)C(=O)OCc2c1cc1n(c2=O)Cc2cc3c(CN(C)C)c(O)ccc3nc2-1", "class 1"),
    ("[2H]c1nc(C)nc([2H])c1-c1cc(NC[C@@H](C)c2cccc3c(C(=O)NC)ccnc23)ncn1 + CC[C@@]1(O)C(=O)OCc2c1cc1n(c2=O)Cc2cc3c(CN(C)C)c(O)ccc3nc2-1", "class 0"),
    ("COc1cc(C)[nH]c(=O)c1CN1CCc2c(Cl)cc(C(OC)C3COC3)c(Cl)c2C1=O (stereo unspecified) + CC[C@@]1(O)C(=O)OCc2c1cc1n(c2=O)Cc2cc3c(CN(C)C)c(O)ccc3nc2-1", "class 0"),
]

---

Recorded measurements of viability, T/C, one per entry
System: 425362-245-T-J1 tumor spheroids, viability % test/control
method.description: Anticancer human tumor 425362-245-T-J1 cell line growth inhibition;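 further: spheroids exposed to agents for 7 days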;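 on viability, T/C: 100% = DMSO vehicle control viability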
settings: second compound 0.003 µM; first compound 0.1 µM; stronger effect = lower value; spheroids with HUVEC and MSC
measurement.kind: viability, T/C (%)

# molecule, assay.system, readout.number
data = [
    ("CC1COCCN1c1cc(-c2ccnn2C)c2ccnc(-c3ccn[nH]3)c2n1 (stereo not drawn) + CC[C@@]1(O)C(=O)OCc2c1cc1n(c2=O)Cc2cc3c(CN(C)C)c(O)ccc3nc2-1", "425362-245-T-J1 tumor spheroids, viability % test/control", 15.3),
    ("CC(C)n1c(=O)n(C)c2cnc3cc(F)c(-c4ccc(OCCCN5CCCCC5)nc4)cc3c21 + CC[C@@]1(O)C(=O)OCc2c1cc1n(c2=O)Cc2cc3c(CN(C)C)c(O)ccc3nc2-1", "425362-245-T-J1 tumor spheroids, viability % test/control", 10.4),
    ("COc1ccc([C@@H](O)c2cc(-c3ncnc4cc(N5CCOCC5)ccc34)c(F)cc2Cl)nn1 + CC[C@@]1(O)C(=O)OCc2c1cc1n(c2=O)Cc2cc3c(CN(C)C)c(O)ccc3nc2-1", "425362-245-T-J1 tumor spheroids, viability % test/control", 103),
]

---

System: 425362-245-T-J1 tumor spheroids, viability % test/control
method.description: Anticancer human tumor 425362-245-T-J1 cell line growth inhibition;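 further: spheroids exposed to agents for 7 days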
settings: curve of compound; spheroids with HUVEC and MSC
pIC50: −log10 of the molar value.

# compound, pIC50
data = [
    ("CC1COCCN1c1cc(-c2ccnn2C)c2ccnc(-c3ccn[nH]3)c2n1 (configuration not stated)", "> 7.50"),
    ("COc1cc(C)[nH]c(=O)c1CN1CCc2c(Cl)cc(C(OC)C3COC3)c(Cl)c2C1=O (configuration not stated)", "< 5.00"),
]

---

Test system: 425362-245-T-J1 tumor spheroids, viability % test/control
method.description: Anticancer human tumor 425362-245-T-J1 cell line growth inhibition;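 further: spheroids exposed to agents for 7 days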;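 on viability, T/C: 100% = DMSO vehicle control viability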
settings: second compound 0.3 µM; first compound 1 µM; stronger effect = lower value; spheroids with HUVEC and MSC

# compound, uom, viability, T/C
records = [
    ("[2H]c1nc(C)nc([2H])c1-c1cc(NC[C@@H](C)c2cccc3c(C(=O)NC)ccnc23)ncn1 + CC[C@@]1(O)C(=O)OCc2c1cc1n(c2=O)Cc2cc3c(CN(C)C)c(O)ccc3nc2-1", "%", 1.44),
    ("COc1cc(C)[nH]c(=O)c1CN1CCc2c(Cl)cc(C(OC)C3COC3)c(Cl)c2C1=O (stereo unspecified) + CC[C@@]1(O)C(=O)OCc2c1cc1n(c2=O)Cc2cc3c(CN(C)C)c(O)ccc3nc2-1", "%", 1.79),
    ("CC(C)n1c(=O)n(C)c2cnc3cc(F)c(-c4ccc(OCCCN5CCCCC5)nc4)cc3c21 + CC[C@@]1(O)C(=O)OCc2c1cc1n(c2=O)Cc2cc3c(CN(C)C)c(O)ccc3nc2-1", "%", 1.73),
    ("Cc1cc(C)c(CNC(=O)c2cc(-c3ccc(CN4CCOCC4)cc3)cc3c2cnn3C2CCCC2)c(=O)[nH]1 + CC[C@@]1(O)C(=O)OCc2c1cc1n(c2=O)Cc2cc3c(CN(C)C)c(O)ccc3nc2-1", "%", 2.06),
    ("CC1COCCN1c1cc(-c2ccnn2C)c2ccnc(-c3ccn[nH]3)c2n1 (stereo unspecified) + CC[C@@]1(O)C(=O)OCc2c1cc1n(c2=O)Cc2cc3c(CN(C)C)c(O)ccc3nc2-1", "%", 1.77),
    ("COc1ccc([C@@H](O)c2cc(-c3ncnc4cc(N5CCOCC5)ccc34)c(F)cc2Cl)nn1 + CC[C@@]1(O)C(=O)OCc2c1cc1n(c2=O)Cc2cc3c(CN(C)C)c(O)ccc3nc2-1", "%", 1.12),
]

---

viability, T/C values for the compounds below.
System: 425362-245-T-J1 tumor spheroids, viability % test/control
method.description: Anticancer human tumor 425362-245-T-J1 cell line growth inhibition;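 further: spheroids exposed to agents for 7 days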;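 on viability, T/C: 100% = DMSO vehicle control viability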
settings: second compound 1 µM; first compound 0.949 µM; stronger effect = lower value; spheroids with HUVEC and MSC
measurement.kind: viability, T/C (%)

# compound, measurement.kind, readout.number
measured = [
    ("CNCc1ccc(-c2cc(-c3nc(-c4ccc(S(=O)(=O)C(C)C)cc4)cnc3N)on2)cc1 + Cn1nnc2c(C(N)=O)ncn2c1=O", "viability, T/C", 3.41),
    ("O=C(c1cc(Cc2n[nH]c(=O)c3ccccc23)ccc1F)N1CCN(C(=O)C2CC2)CC1 + Cn1nnc2c(C(N)=O)ncn2c1=O", "viability, T/C", 71.6),
    ("Cc1sc2c(c1C)C(c1ccc(Cl)cc1)=NC(CC(=O)Nc1ccc(O)cc1)c1nnc(C)n1-2 (centres undefined) + Cn1nnc2c(C(N)=O)ncn2c1=O", "viability, T/C", 4.19),
    ("Cn1ncnc1[C@H]1c2n[nH]c(=O)c3cc(F)cc(c23)N[C@@H]1c1ccc(F)cc1 + Cn1nnc2c(C(N)=O)ncn2c1=O", "viability, T/C", 9.08),
]

---

Test system: 425362-245-T-J1 tumor spheroids, viability % test/control
method.description: Anticancer human tumor 425362-245-T-J1 cell line growth inhibition;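 further: spheroids exposed to agents for 7 days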;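 on viability, T/C: 100% = DMSO vehicle control viability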
settings: second compound 100 µM; first compound 0.3 µM; stronger effect = lower value; spheroids with HUVEC and MSC
Experimental: Multicellular complex tumor spheroid response to DNA repair inhibitors in combination with DNA-damaging drugs This study explores the anticancer activities of DNA-damaging drugs and inhibitors of DNA damage repair, both as single agents and in combinations. […] Twenty-six patient-derived or established malignant cell lines were evaluated representing sarcoma, melanoma, small cell lung cancer (SCLC), non-small cell lung cancer (NSCLC), as well as bladder, ovarian and pancreatic cancers. […]

# compound, viability, T/C / %
rows = [
    ("Cc1sc2c(c1C)C(c1ccc(Cl)cc1)=NC(CC(=O)Nc1ccc(O)cc1)c1nnc(C)n1-2 (centres undefined) + Cn1nnc2c(C(N)=O)ncn2c1=O", 10.6),
    ("CNCc1ccc(-c2cc(-c3nc(-c4ccc(S(=O)(=O)C(C)C)cc4)cnc3N)on2)cc1 + Cn1nnc2c(C(N)=O)ncn2c1=O", 4.28),
    ("Cn1ncnc1[C@H]1c2n[nH]c(=O)c3cc(F)cc(c23)N[C@@H]1c1ccc(F)cc1 + Cn1nnc2c(C(N)=O)ncn2c1=O", 4.75),
    ("O=C(c1cc(Cc2n[nH]c(=O)c3ccccc23)ccc1F)N1CCN(C(=O)C2CC2)CC1 + Cn1nnc2c(C(N)=O)ncn2c1=O", 43.8),
]

---

Item-by-item account of viability, T/C
System: 425362-245-T-J1 tumor spheroids, viability % test/control
method.description: Anticancer human tumor 425362-245-T-J1 cell line growth inhibition;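 further: spheroids exposed to agents for 7 days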;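 on viability, T/C: 100% = DMSO vehicle control viability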
settings: second compound 30 pM; first compound 0.3 µM; stronger effect = lower value; spheroids with HUVEC and MSC
Description: Multicellular complex tumor spheroid response to DNA repair inhibitors in combination with DNA-damaging drugs This study explores the anticancer activities of DNA-damaging drugs and inhibitors of DNA damage repair, both as single agents and in combinations. […] Twenty-six patient-derived or established malignant cell lines were evaluated representing sarcoma, melanoma, small cell lung cancer (SCLC), non-small cell lung cancer (NSCLC), as well as bladder, ovarian and pancreatic cancers. […]
measurement.kind: viability, T/C (%)

# compound, assay.system, measurement.kind, readout.number
records = [
    ("Cn1ncnc1[C@H]1c2n[nH]c(=O)c3cc(F)cc(c23)N[C@@H]1c1ccc(F)cc1 + COc1cc2c(cc1O)CCNC21CSC2c3c(OC(C)=O)c(C)c4c(c3C(COC1=O)N1C(O)C3Cc5cc(C)c(OC)c(O)c5C(C21)N3C)OCO4", "425362-245-T-J1 tumor spheroids, viability % test/control", "viability, T/C", 13.2),
    ("Cc1sc2c(c1C)C(c1ccc(Cl)cc1)=NC(CC(=O)Nc1ccc(O)cc1)c1nnc(C)n1-2 (centres undefined) + COc1cc2c(cc1O)CCNC21CSC2c3c(OC(C)=O)c(C)c4c(c3C(COC1=O)N1C(O)C3Cc5cc(C)c(OC)c(O)c5C(C21)N3C)OCO4", "425362-245-T-J1 tumor spheroids, viability % test/control", "viability, T/C", 14.2),
    ("O=C(c1cc(Cc2n[nH]c(=O)c3ccccc23)ccc1F)N1CCN(C(=O)C2CC2)CC1 + COc1cc2c(cc1O)CCNC21CSC2c3c(OC(C)=O)c(C)c4c(c3C(COC1=O)N1C(O)C3Cc5cc(C)c(OC)c(O)c5C(C21)N3C)OCO4", "425362-245-T-J1 tumor spheroids, viability % test/control", "viability, T/C", 93.6),
    ("CNCc1ccc(-c2cc(-c3nc(-c4ccc(S(=O)(=O)C(C)C)cc4)cnc3N)on2)cc1 + COc1cc2c(cc1O)CCNC21CSC2c3c(OC(C)=O)c(C)c4c(c3C(COC1=O)N1C(O)C3Cc5cc(C)c(OC)c(O)c5C(C21)N3C)OCO4", "425362-245-T-J1 tumor spheroids, viability % test/control", "viability, T/C", 8.53),
]
